Sourced from patent US20220204611A1

Biological target: T1, human TREM2 on cells (human, UniProt Q9NZC2 19-230)
T1 sequence: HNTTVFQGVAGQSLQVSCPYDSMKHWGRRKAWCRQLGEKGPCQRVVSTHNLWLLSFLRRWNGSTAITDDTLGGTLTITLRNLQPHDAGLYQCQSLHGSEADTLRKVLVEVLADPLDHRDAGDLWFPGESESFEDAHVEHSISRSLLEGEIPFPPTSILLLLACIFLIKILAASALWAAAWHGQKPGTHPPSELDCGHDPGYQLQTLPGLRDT
Assay: cell-based or functional assay
Assay metric: pSyk EC50 (nM)
Just the number please, in nM, no unit attached.

26C10 (antibody, human IgG2, V domains shown, human IgG2 from hybridoma) VH: EVQLVESGGALVQPGGSLRLSCAASGFTFSSFGMSWVRQAPGKGLEWVSYISSSSFTIYYADSVKGRFTISRDNAKNSFYLQMNSLRDEDTAVYFCVREGGITMVRGVSSYGMDVWGQGTTVTVSS VL: SFELTQPPSVSVSPGQTASITCSGDKLGDKYVCWYQQKPGQSPMLVIYQDTKRPSGIPERFSGSNSGNTATLTISGTQAMDEADYYCQAWDSSTVVFGGGTKLTVL :: 2.2
10E3 (antibody, human IgG2, V domains shown, human IgG2 from hybridoma) VH: EVQLVQSGAEVKKPGESLMISCKGSGYSFTNYWIGWVRQMPGKGLEWMGIIYPGDSDTRYSPSFQGQVTISADKSISTAYLQWSSLKASDTAMYFCARRRQGIWGDALDIWGQGTLVTVSS VL: EIVMTQSPATLSVSPGERATLSCRASQSVSSNLAWFQQKPGQAPRLLIYGASTRATGIPARFSVSGSGTEFTLTISSLQSEDFAFYYCLQDNNWPPTFGPGTKVDIK :: 0.4
5E3 (antibody, human IgG2, V domains shown, human IgG2 from hybridoma) VH: QVQLVQSGAEVKKPGASVKVSCKASGYTFTGYYIHWVRQAPGLGLEWMGWINPYSGGTTSAQKFQGRVTMTRDTSISSAYMELSRLRSDDTAVYYCARDGGYLALYGTDVWGQGTTVTVSS VL: DIQMTQSPSSLSASVGDRVTITCRASQGISNYLAWFQQKPGKAPKSLIYAASSLQSGVPSKFSGSGSGTDFTLTISSLQPEDFATYYCQQYSTYPFTFGPGTKVDIK :: 0.24
24F4 (antibody, human IgG2, V domains shown, human IgG2 from hybridoma) VH: EVQLVQSGAEVKKPGESLKISCKGSGYTFTSYWIGWVRQMPGKGLEWMGIIYPGDSDTRYSPSFQGQVTISVDKSSSTAYLQWSSLKASDTAIYYCTRQAIAVTGLGGFDPWGQGTLVTVSS VL: EIVLTQSPGTLSLSPGERATLSCRASQSVSSSYLAWYQQKPGQAPRLLIYGASSRATGIPDRFSGSGSGTDFTLTISRLEPEDFALYYCQQYDTSPFTFGPGTKVDIK :: 2.4

Lab note: next binder to report on.
Data request: What measured pSyk EC50 goes with 12G10 (antibody, human IgG2, V domains shown) VH: EVQLLESGGGLVQPGGSLRLSCAASGFTFSSYAMSWVRQAPGKGLEWVSAIGGGGVSTYCADSVKGRFTISRDNSKNTLYLQMNSLRAEDTAVYYCAKFYIAVAGSHFDYWGQGTLVTVSS VL: QAVPTQPSSLSASPGVLASLTCTLRSGINVGTYRIYWYQQKPGSPPQYLLRYKSDSDKQQGSGVPSRFSGSKDASANAGILLISGLQSEDEADYYCMIWYSSAVVFGGGTKLTVL ?
Data returned: 0.4
